List of Top MFI values.
- MEASURED_TARGET: T1, human NKp46 (full length, on cells) (human, UniProt O76036 22-304)
- T1 construct: also called human NKp46-CHOK1
- T1 sequence (O76036 22-304 Q82K): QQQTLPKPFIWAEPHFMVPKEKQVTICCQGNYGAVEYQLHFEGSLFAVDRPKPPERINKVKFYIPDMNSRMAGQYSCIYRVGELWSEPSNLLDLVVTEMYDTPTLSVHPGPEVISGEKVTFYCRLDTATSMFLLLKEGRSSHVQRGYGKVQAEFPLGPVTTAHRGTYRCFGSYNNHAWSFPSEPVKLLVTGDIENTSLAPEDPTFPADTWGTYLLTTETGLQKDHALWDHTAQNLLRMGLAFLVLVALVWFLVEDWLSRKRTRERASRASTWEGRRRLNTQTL
- PROTOCOL_TEXT: flow cytometry on human NKp46-CHOK1 cells
Lab note: record the figure alone, no unit after it.

Some binders with known Top MFI results, for comparison:
BINDER	Top MFI
H2-PA31 humanized antibody (antibody, human IgG1, V domains shown, not shown: constant region of human IgG1) VH: EVQLVESGGGLVQPGGSLRLSCAVSGRTFSRLPMGWFRQAPGKGLEFVAAISWSSSTTYYADSVKGRFTISRDNSKNTAYLQMNSLRAEDTAVYYCAAVGGSLDYSATVVYTAARAYADWGQGTLVTVSS	5940
H4-PA31 humanized antibody (antibody, human IgG1, V domains shown, not shown: constant region of human IgG1) VH: EVQLVESGGGLVQPGGSLRLSCAVSGRTFSRLPMGWFRQAPGKDREFVAAISWSSSTTYYADSVKGRFTISRDNSKNTAYLQMNSLRAEDTAVYYCAAVGGSLDYSATVVYTAARAYADWGQGTLVTVSS	5950
H1-PC11 humanized antibody (antibody, human IgG1, V domains shown, not shown: constant region of human IgG1) VH: EVQLVESGGGLVQPGGSLRLSCAASPYSANSFSMAWFRQAPGKGLEGVACIQAESGSTNVAPSVKGRFTISQDNSKNTLYLQMNSLRAEDTAVYYCAAFKRNVGGCELRPEHWRFWGQGTLVTVSS	6710

With those in mind, consider the next binder.
Query :: Endpoint output: Top MFI of H4-PA45 humanized antibody (antibody, V domains shown, not shown: constant region of human IgG1) VH: EVQLVESGGGLVQPGGSLRLSCAASGRTFSRLPMAWFRQAPGKDREFVAAISWSGGSTYYADSMKGRFTISRDNSKNTAYLQMNSLRAEDTAVYYCAAVGDSAPYSATIVYTDARAYAYWGQGTLVTVSS . Value?
Result :: 5760
